- Target system: Aβ42 (Homo sapiens, UniProt P05067)
- Sequence (P05067 672-713): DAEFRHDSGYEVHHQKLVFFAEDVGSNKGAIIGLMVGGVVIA
- Test name: Th-T (thioflavin-T) assay of Aβ42 aggregation
- Format: biochemical
- Experimental conditions: head suffix _10 (concentration 10); reading M82
Measured property: Th-T fluorescence of Aβ42 (sheet Fig. 7a), mean of three wells

[[record]]
molecule = "C=C1CCC2C(C)(CCC=C(C)C)C(O)CCC2(C)C1Cc1c(OC)oc(C)c(C(=O)OC)c1=O (centres unmarked) [Compound 14]"
test_value = 2.8409

[[record]]
molecule = "C=C1CCC2C(C)(CCC=C(C)C)C(O)CCC2(C)C1Cc1c(OC)oc(CO)c(C)c1=O (centres unmarked) [Compound 12]"
test_value = 3.17

[[record]]
molecule = "C=C1CC[C@@H]2[C@](C)(CC[C@H]3O[C@H](C=C(C)C)C[C@@]23C)[C@@H]1Cc1c(OC)oc(CO)c(C)c1=O [Compound 20]"
test_value = 3.375

[[record]]
molecule = "C=C1CCC2C(C)(CCC=C(C)C)C(O)CCC2(C)C1Cc1c(OC)oc(CO)c(C(=O)OC)c1=O (centres unmarked) [Compound 13]"
test_value = 1.556

[[record]]
molecule = "C=C1CC[C@@H]2[C@](C)(CC[C@H]3O[C@H](C=C(C)C)C[C@@]23C)[C@@H]1Cc1c(OC)oc(CO)c(C(=O)OC)c1=O [Compound 21]"
test_value = 1.285

